Overview of reported TGI across a group of compounds:
Tested on: ACHN renal
protocol_text: NCI tumour cell line growth inhibition, 48 h

[
  {
    "compound": "CCOP(=O)(C=C=C1CCC2[C@@H]3CCc4cc(OC)ccc4C3CC[C@]12C)OCC (some centres undefined)",
    "experimental_system": "ACHN renal",
    "readout_unit": "µM",
    "limit_sign": "=",
    "TGI": 21.9
  },
  {
    "compound": "COc1cc(C(=O)/C=C/c2ccc(OCCSCCCCCCCCCCSCCOc3ccc(/C=C/C(=O)c4cc(OC)c(OC)c(OC)c4)cc3)cc2)cc(OC)c1OC",
    "experimental_system": "ACHN renal",
    "readout_unit": "µM",
    "limit_sign": ">",
    "TGI": 100
  },
  {
    "compound": "CN1C(=O)CCC2[C@@H]3CC=C4C[C@@H](O)CC[C@]4(C)C3CC[C@@]21C (some centres undefined)",
    "experimental_system": "ACHN renal",
    "readout_unit": "µM",
    "limit_sign": ">",
    "TGI": 100
  },
  {
    "compound": "CCOC(=O)c1ccccc1OC(=O)NNc1ccccc1",
    "experimental_system": "ACHN renal",
    "readout_unit": "µM",
    "limit_sign": ">",
    "TGI": 100
  },
  {
    "compound": "O=P1(Oc2ccccc2)N=P(c2ccccc2)(c2ccccc2)C=C(c2ccc(Cl)cc2)N1 (centres undefined)",
    "experimental_system": "ACHN renal",
    "readout_unit": "µM",
    "limit_sign": "=",
    "TGI": 25.6
  },
  {
    "compound": "O=C(COc1ccc(/C=C2\\COc3ccccc3C2=O)cc1)Nc1nccs1",
    "experimental_system": "ACHN renal",
    "readout_unit": "µM",
    "limit_sign": "=",
    "TGI": 42.3
  },
  {
    "compound": "CC[C@@H]1[C@@H](C)O[C@@](O)([C@@H](C)[C@H](O)[C@H](C)[C@H]2OC(=O)/C=C/C=C/[C@H](C)[C@@H]([C@@H](C)[C@@H](O)[C@H](C)[C@@]3(O)C[C@@H](O[C@H]4C[C@@H](O)[C@H](O)C(C)O4)[C@H](CC)[C@@H](C)O3)OC(=O)/C=C/C=C/[C@@H]2C)C[C@H]1O[C@@H]1C[C@@H](O)[C@H](O)C(C)O1 (some centres undefined)",
    "experimental_system": "ACHN renal",
    "readout_unit": "µM",
    "limit_sign": "=",
    "TGI": 0.411
  },
  {
    "compound": "CO/C=C/C(=O)c1cc2cnc3c(=N)cc(NC(=O)C(C)C)c([nH]1)c23",
    "experimental_system": "ACHN renal",
    "readout_unit": "µM",
    "limit_sign": "=",
    "TGI": 1.67
  },
  {
    "compound": "C=C1CC2CCCC12C=O (centres undefined)",
    "experimental_system": "ACHN renal",
    "readout_unit": "µM",
    "limit_sign": ">",
    "TGI": 10
  }
]
